- target or system: T1, human SLC34A2 (human, UniProt O95436 1-690)
- T1 construct: whole, on cells; also called human solute carrier 34 A2; NaPi2b
- T1 sequence (looked up): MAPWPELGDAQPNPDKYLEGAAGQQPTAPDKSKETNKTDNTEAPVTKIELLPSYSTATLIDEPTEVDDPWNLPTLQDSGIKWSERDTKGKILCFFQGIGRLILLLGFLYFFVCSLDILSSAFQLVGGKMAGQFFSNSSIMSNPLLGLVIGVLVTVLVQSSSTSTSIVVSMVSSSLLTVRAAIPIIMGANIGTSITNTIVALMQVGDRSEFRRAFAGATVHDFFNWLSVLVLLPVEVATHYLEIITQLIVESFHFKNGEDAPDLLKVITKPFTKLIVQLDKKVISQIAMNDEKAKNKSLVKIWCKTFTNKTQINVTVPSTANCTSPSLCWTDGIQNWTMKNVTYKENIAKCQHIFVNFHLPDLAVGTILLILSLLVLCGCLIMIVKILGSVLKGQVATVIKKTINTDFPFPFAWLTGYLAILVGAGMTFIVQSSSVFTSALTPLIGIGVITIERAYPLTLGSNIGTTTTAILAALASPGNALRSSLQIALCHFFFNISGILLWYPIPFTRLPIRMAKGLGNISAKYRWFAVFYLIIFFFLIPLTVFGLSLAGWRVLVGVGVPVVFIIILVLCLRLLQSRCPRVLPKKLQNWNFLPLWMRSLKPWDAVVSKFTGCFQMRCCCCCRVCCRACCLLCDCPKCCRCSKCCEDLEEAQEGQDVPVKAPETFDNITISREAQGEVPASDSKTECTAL
- run description: FACS, HEK293/human SLC34A2 cells
Could you please mark met for values of EC50 below 2 nM and not met for values at or above it?

>  <binder>
xi18G1H4 hIgG1 (antibody, V domains shown, chimeric, hIgG1) VH: QVQLQQPGAELVKPGASVRMSCKASAYTFTTYNLHWVKQTPGQGLEWIGAISPGNGVTSYNQKFRGKATLTADKSSSTAYMQLSSLTSEDSAVYYCARGYGYSVGAMDYWGQGTSVTVSS VL: DIQMTQTTSSLSASLGDRVNISCSASQGIGNFLNWYQQKPDGTVKLLIYYTSSLHSGVPPRFSGSGSGTDYSLTISNLEPEDIATYYCQQYHKLPLTFGAGTKLELK

>  <group label>
met

$$$$
>  <binder>
xi95H11A1D8VH-1 hIgG1 (antibody, V domains shown, chimeric, hIgG1; the suffix VH-1 is not explained) VH: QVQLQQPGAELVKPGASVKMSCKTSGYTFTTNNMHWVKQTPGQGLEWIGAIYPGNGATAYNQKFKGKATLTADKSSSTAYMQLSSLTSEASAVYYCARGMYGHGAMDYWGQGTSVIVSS VL: DIVLTQSPATLSVTPGDSVSLSCRARQNIGNNLYWYQQKSNESPRLLIKYASQSISGIPSRFSGSGSGTDFTLTINSVETEDFGVYFCQQSFSWPLTFGAGTKLELK

>  <group label>
not met

$$$$
>  <binder>
xi62G10E4G8 hIgG1 (antibody, V domains shown, chimeric, hIgG1) VH: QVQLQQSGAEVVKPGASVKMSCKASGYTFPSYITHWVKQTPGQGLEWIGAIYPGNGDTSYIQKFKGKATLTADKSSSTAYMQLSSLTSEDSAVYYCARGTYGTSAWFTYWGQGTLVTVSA VL: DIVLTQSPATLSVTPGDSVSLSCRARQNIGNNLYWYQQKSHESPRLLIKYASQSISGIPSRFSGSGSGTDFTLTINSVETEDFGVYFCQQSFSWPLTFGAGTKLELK

>  <group label>
met

$$$$
>  <binder>
xi71F7D4 hIgG1 (antibody, V domains shown, chimeric, hIgG1) VH: DVKLVESGGDLVKLGGSLKLSCAASGFTFSNYYMSWVRQTPEKRLELVAVINSNGGTTYYPDNMKGRFTISRDNAKNTLYLQTSSLKSEDTALYYCGRHEHYYGTNIAWFAYWGQGTLVTVSA VL: DIVMTQSHKFMSTSVGDRVSITCKASQDVTTAVAWYQQKPGQSPKLLIYWASTRHTGVPDRFTGSGSGTDHTLTISSVQAEDLALYYCQQHYSTPVTFGGGTKLEIK

>  <group label>
not met

$$$$
>  <binder>
xi25B11B9 hIgG1 (antibody, V domains shown, chimeric, hIgG1) VH: DVKLVESGGGLVRLGGSLKLSCAASGFTFSSHYMSWVRQTPKKRLELVATINSSGGNTYYPDTVKGRFTISRDNARNTLFLQMTSLKSEDTALYYCARQPINTVAYFDYWGQGTTLTVSS VL: DIVMTQSHEFMSTSVGARVSITCKASQDLTTAVAWYQQKPGQSPKLLIYWASTRHIGVPDRFTGSGSGADYTLTISSVQAEDLALYYCQQYHSTPLTFGAGTKLELK

>  <group label>
not met

$$$$
